experiment: basal 3T3-L1 adipocyte mitochondrial potential changes, profiling panel, cell-based, JC-1 fluorescence, 3T3-L1 adipocytes, 24 h, 100 nL compound (AID 1168); conditions: JC-1 mitochondrial fluorescence, higher = more signal, called active from +8 up or from −8 down; note: test concentration not given here
Decision: z-score >= -0.2 yields met, all other cases yield not met.

Reference set, count: 5
[
  {
    "COMPOUND": "CC(C)C[C@@H]1NC(=O)[C@H](C(C)C)NC(=O)[C@@]23C(=O)N[C@@H](Cc4ccccc4)C2[C@H](C)[C@@]2(C)O[C@H]2C3/C=C/CC/C=C/CNC1=O (stereo partly drawn)",
    "CATEGORY": "not met"
  },
  {
    "COMPOUND": "C=C(COC)/C(=C/C[C@@H](OC(=O)c1ccncc1)c1ccc(CO)o1)c1cc(C(=O)OC)ccc1OC",
    "CATEGORY": "not met"
  },
  {
    "COMPOUND": "CC(C)C(O)C1C=CC2C(=O)NC(=O)C2N1Nc1ccc(Cl)cc1Cl (stereo not drawn)",
    "CATEGORY": "not met"
  },
  {
    "COMPOUND": "O=C1C[C@@](C(=O)NCC(F)(F)F)(c2ccc([N+](=O)[O-])cc2)[C@@H](c2ccc(CO)cc2I)N1C1CCCCC1",
    "CATEGORY": "not met"
  },
  {
    "COMPOUND": "C=C(C)[C@@H]1CC=C(C(O)C2C=CC3C(=O)N(C)C(=O)C3N2Nc2ccccc2)CC1 (stereo partly drawn)",
    "CATEGORY": "met"
  }
]

Given `C[N+](C)(C)CCCCNC(=O)[C@@H]1C[C@@H]2C(=O)N[C@@H](Cc3ccccc3)C(=O)N2[C@@H]1c1cccc(OCCO)c1` , state whether its z-score is at least -0.2.
met

Determine whether measured z-score meets or exceeds -0.2 for `CCCC[C@@H]1C[C@H]1[C@@H](NC(=O)c1ccco1)c1ccccc1C(F)(F)F`
not met

----------
system: PRMT1 (protein arginine N-methyltransferase 1); test: PRMT1 binders on small-molecule microarrays, primary screen, biochemical, small-molecule microarray, 635 nm fluorescence (AID 1088); conditions: small-molecule microarray binding, higher = more signal;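 note: binding of Prmt1 protein to compounds spotted on small-molecule microarray slides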
Entry flag: 1 if composite z-score reaches 0.8; 0 if it does not.

Here are 3 compounds together with their reported answers.
[
  {
    "COMPOUND": "C=CC[C@]1(C(=O)NCc2ccccc2)N=C(c2ccc(OCCCO)cc2)O[C@H]1c1ccccc1N=[N+]=[N-]",
    "TARGET UNDER TEST": "PRMT1 (protein arginine N-methyltransferase 1)",
    "CATEGORY": 1
  },
  {
    "COMPOUND": "OCCCC1=CC(c2cccs2)N(Cc2cc3c(cc2Br)OCO3)CC1 (stereo not drawn)",
    "TARGET UNDER TEST": "PRMT1 (protein arginine N-methyltransferase 1)",
    "CATEGORY": 0
  },
  {
    "COMPOUND": "COCCCNC(=O)[C@@]1(C)c2ccccc2C(=O)N(C(C)C)[C@H]1c1ccc(CO)cc1",
    "TARGET UNDER TEST": "PRMT1 (protein arginine N-methyltransferase 1)",
    "CATEGORY": 1
  }
]

hey, is composite z-score for this one >= 0.8? `COc1ccc(CCNC(=O)[C@@]2(Sc3ccc(C)cc3)CC(=O)N(C(C)C)[C@@H]2c2ccc(CO)cc2I)cc1`
0

Test whether the compound `CCCC#C[Si](O[C@H](CC)c1cn(Cc2cccc(Cl)c2)nn1)(C(C)C)C(C)C` records composite z-score of 0.8 or higher.
0

----------
tested on: Sam68 (KHDRBS1); assay: Sam68 small-molecule binders, primary screen, biochemical, small-molecule microarray, 635 nm fluorescence (AID 1125); conditions: small-molecule microarray binding, higher = more signal;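 note: score merges 667 nm channel intensity with signal to noise over triplicate slides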
Below, each of the compounds is paired with its reported composite z-score value.
Respond with the number and no other words.

Identify the measured composite z-score of `COCCOC(=O)N1C(=O)[C@@]2(c3cc(C#CC4(O)CCCCCC4)ccc31)[C@H](c1ccccc1OCCO)N1[C@H](c3ccccc3)[C@H](c3ccccc3)OC(=O)[C@H]1[C@@H]2C(=O)N1CCN(c2ncccn2)CC1` for Sam68 (KHDRBS1).
1.29

----------
molecular target: Torsin-1A (Homo sapiens) (UniProt O14656); test: small-molecule binders of mutant TOR1A in lysate, primary screen, cell lysate, small-molecule microarray, COS7 lysate, 635/667 nm fluorescence (AID 1150); settings: COS7 hTOR1A mutant lysate, 635 nm fluorescence, higher = more signal;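 note: score pools 667 nm emission and signal to noise measuring lysate protein binding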
Sequence (O14656 whole entry, looked up): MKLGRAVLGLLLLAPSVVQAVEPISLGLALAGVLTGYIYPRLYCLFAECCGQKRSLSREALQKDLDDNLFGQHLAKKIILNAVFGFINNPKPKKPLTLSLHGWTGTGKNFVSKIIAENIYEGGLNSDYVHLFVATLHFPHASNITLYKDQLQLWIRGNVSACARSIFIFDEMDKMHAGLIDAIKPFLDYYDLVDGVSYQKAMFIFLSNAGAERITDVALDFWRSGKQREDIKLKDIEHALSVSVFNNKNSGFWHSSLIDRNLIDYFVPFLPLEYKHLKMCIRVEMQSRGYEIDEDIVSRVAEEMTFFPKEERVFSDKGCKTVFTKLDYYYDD
VALUE TYPE: composite z-score

If you can, please state the reported composite z-score value of `CC(C)OC(=O)C=C1C[C@@H](c2ccccn2)O[C@@H](c2ccccn2)O1` .
0.0457

Please report the recorded composite z-score for CC(C)C(O)C1C=CC2C(=O)NC(=O)C2N1Nc1ccc(Cl)cc1Cl (centres undefined) .
0.794

Look up composite z-score: CN1C(=O)C2C=CC(C(O)C3CC=CCC3)N(N(c3ccccc3)c3ccccc3)C2C1=O (centres undefined)
-0.368

Which composite z-score reading was recorded for the compound O[C@@H](Cc1ccccc1)[C@H]1C2C=CCCC=C2CN1Cc1cccc(Cl)c1 (some centres undefined) ?
-0.453

----------
# composite z-score values compiled below
test: COS7 lysate on small-molecule microarray, probe aHis, 635 nm (AID 1123); conditions: COS7 cell lysate, fluorescence, higher = more signal;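 note: z-score combines 667nm fluorescence intensity with signal-to-noise per printed compound spot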
// no unit, no text: just the number

These recorded examples may help you get a feel for the data.
[
  {
    "COMPOUND": "CO[C@H]1O[C@H](CO)[C@@H](OC(=O)Nc2cccc(F)c2)[C@H](OC(=O)Nc2ccccc2)[C@@H]1OC(=O)Nc1ccccc1",
    "composite z-score": 2.54
  },
  {
    "COMPOUND": "Oc1ccc2cc[n+](Cc3sc4ccccc4c3Cl)cc2c1",
    "composite z-score": 2.88
  },
  {
    "COMPOUND": "O=C1C2C=CC(C(O)CCc3ccccc3)N(Nc3ccccc3F)C2C(=O)N1c1ccccc1 (configuration not stated)",
    "composite z-score": 2.69
  },
  {
    "COMPOUND": "CC(C)NC(=O)[C@@]1(C)c2ccccc2C(=O)N(Cc2cc(C(F)(F)F)cc(C(F)(F)F)c2)[C@H]1c1ccc(CO)cc1",
    "composite z-score": 2.07
  }
]

Continue with the compound presented below.
What does the record list as composite z-score for `O=C1O[C@@H](c2ccccc2)[C@@H](c2ccccc2)N2[C@@H](c3ccccc3OCCO)[C@]3(C(=O)Nc4ccc(C#CC5=CCCCC5)cc43)[C@@H](C(=O)N3CCCCCCC3)[C@H]12` ?
4.3

----------
Each item that follows carries a reported composite z-score.
molecular target: Torsin-1A (Homo sapiens) (UniProt O14656); assay: torsin A binders from cell lysate, primary screen, small-molecule microarray, wild-type, 635/667 nm (AID 1149); settings: COS7 hTOR1A-WT lysate, 635 nm fluorescence, higher = more signal
Write no unit; give the number alone.

[
  {
    "COMPOUND": "C=C(COC)/C(=C/C[C@@H](OC(C)=O)c1ccc(OCCO)cc1)c1cnc2ccccc2c1",
    "READING": -0.148
  }
]

Reported composite z-score for `COc1cc(COC(C)=O)ccc1OC(C)=O` : what is it?
0.343

Please give the measured composite z-score for this compound: `C=CCOC(=O)[C@H]1[C@@H]2C(=O)O[C@@H](c3ccccc3)[C@@H](c3ccccc3)N2[C@@H](c2ccc(OCCOC(=O)[C@@H]3C[C@@H]4C(=O)N[C@@H](CC(C)C)C(=O)N4[C@@H]3c3ccc(O)cc3)cc2)[C@]12C(=O)Nc1ccccc12`
0.941

What does the data say about its composite z-score? Entry: CCCCC(CC)C(O)C1C=CC2C(=O)N(Cc3ccccc3)C(=O)C2N1n1cnnc1 (stereo not given)
0.17

Can you share its composite z-score? I mean this compound: `CC(C)N1C(=O)[C@@]2(Cc3ccccc31)c1ccccc1C(=O)N(Cc1ccccc1Cl)[C@H]2c1ccc(CO)cc1`
-1.47

----------
assay: HepG2 liver cancer cell viability effects, profiling panel, resazurin fluorescence, 24 h, PK04 Diversity Set (AID 1172); conditions: higher = more signal; note: test concentration not given here
VALUE TYPE: z-score
Returns: the value as a bare number; no unit string appended.

Quick one: z-score for `COC(=O)[C@@]1(Cc2ccccc2)N=C(c2ccc(OCCCO)cc2)O[C@H]1c1ccccc1` ?
-0.882

Quick one: z-score of CCCCCN1CC=CC23O[C@@H]4/C=C\CCC(C)OC(=O)C4[C@H]2C(=O)N(C(C)CO)[C@@H]3C1=O (stereo partly specified) ?
0.194

// returns reported z-score for input `CC(C)[Si](C#Cc1ccc(Oc2ccccc2)cc1)(O[Si](C#Cc1ccc(Oc2ccccc2)cc1)(C(C)C)C(C)C)C(C)C`
0.0013

Tell me the measured z-score of `O=C1O[C@@H](c2ccccc2)[C@@H](c2ccccc2)N2[C@@H](c3ccccc3OCCO)[C@]3(C(=O)Nc4ccc(C#CC5=CCCCC5)cc43)[C@@H](C(=O)N3CCCCCCC3)[C@H]12` , please.
-0.868

# z-score lookup, item `COCCOC(=O)N1C(=O)[C@@]2(c3cc(C#CC4(O)CCCCCC4)ccc31)[C@H](c1ccc(OCCO)cc1)N1[C@H](c3ccccc3)[C@H](c3ccccc3)OC(=O)[C@H]1[C@@H]2C(=O)N1CCN(c2ncccn2)CC1`
-0.0209

Given the entry `C=C(/C(=C/C[C@H](OC(C)=O)c1ccc(CO)o1)c1cc(C(=O)OC)ccc1OC)C(C)C` , report its measured z-score.
-0.783
